// data source = ChEMBL document CHEMBL3352489

Reported MIC95 by item:
Tested on: Klebsiella pneumoniae
Assay: microbe, parasite or virus in culture
Assay type: functional
Conditions: J 14368/08, 24 h
Description: Antibacterial activity against Klebsiella pneumoniae J 14368/08 after 24 hrs by microdilution broth method
Lab book: enter the figure in µM, no units written.

Exercise: Any idea what MIC95 was measured for "CCCCCCCCCCCCCCCC[N+](C)(C)Cc1ccccc1" ?
Solution: 7.81

Exercise: Any idea what MIC95 was measured for "CCCCCCCCCCCC[n+]1cccc2cc(O)ccc21.[Br-]" ?
Solution: 3.91

Exercise: Any idea what MIC95 was measured for "CCCCCCCCCCCCCC[N+](C)(C)Cc1ccccc1" ?
Solution: 7.81

Exercise: Any idea what MIC95 was measured for "CCCCCCCCCCCC[n+]1ccccc1" ?
Solution: 7.81

Exercise: Any idea what MIC95 was measured for "CCCCCCCCCCCCCC[n+]1ccccc1" ?
Solution: 7.81

Exercise: Any idea what MIC95 was measured for "CCCCCCCCCCCC[N+](C)(C)Cc1ccccc1" ?
Solution: 0.98

Exercise: Any idea what MIC95 was measured for "CCCCCCCCCCCCCC[n+]1cccc2cc(O)ccc21.[Br-]" ?
Solution: 31.2
